For each of the sequences below, state its protein stability index.
Tested on: Saccharomyces cerevisiae
Assay: protein stability index of tFT-peptide fusion (C-terminal peptide) (PSI (0-1 scale)); higher = more stable (slower turnover)
Settings: genetic background: wild type; temperature: 30 C
Numbers only.

Some sequences with recorded protein stability index:
• EQLGHASKRHKP [RPP1 C-terminal 12 aa] = 0.689
• TLISGKEDGPTI [SRY1 C-terminal 12 aa] = 0.701

Each of the following entries comes with a recorded value; kindly state protein stability index for each.
1. SNWARIFFCHHD [YDL186W C-terminal 12 aa]
2. LKRTAIQFAAFS [SEC5 C-terminal 12 aa]
3. LGYTDDEIYNRQ [SER2 C-terminal 12 aa]
4. YSINPDEIELDI [SYF1 C-terminal 12 aa]
5. ARTSDELQFTLP [MPT5 C-terminal 12 aa]
6. RSKLFNLSINNP [SPC72 C-terminal 12 aa]
7. KRRIEEIQMLFE [RAD5 C-terminal 12 aa]
8. PREILLRLMNDK [PRP6 C-terminal 12 aa]

Result block:
1. 0.713
2. 0.684
3. 0.681
4. 0.698
5. 0.687
6. 0.686
7. 0.683
8. 0.704

For every listed record, write down its protein stability index.
1. IQKLEEARNPQF [UPS1 C-terminal 12 aa]
2. KQLGSSHNYTVN [SKG6 C-terminal 12 aa]
3. QEAGAFTFNEDF [RNR2 C-terminal 12 aa]
4. TLVGTPGYRITL [RCE1 C-terminal 12 aa]
5. KSALSKTLGLNK [NHA1 C-terminal 12 aa]
6. KELVKRRIVGEV [AEP3 C-terminal 12 aa]

Result block:
0.718
0.696
0.711
0.695
0.704
0.72

Please give protein stability index for each item listed below.
1. NTSRIAKFFNRR [SEC15 C-terminal 12 aa]
2. NKRDKRPANFTR [TSC11 C-terminal 12 aa]
3. KVFDRSGIVLEK [QRI1 C-terminal 12 aa]
4. LELLLAADYLSI [ELC1 C-terminal 12 aa]
5. TFLYYYFPLPTN [YPL080C C-terminal 12 aa]
6. SVFGEAEEVTNW [MET2 C-terminal 12 aa]
7. NRIVSLKDATSK [GLN4 C-terminal 12 aa]

Result block:
0.705
0.692
0.701
0.682
0.69
0.702
0.685

Query block: // query protein stability index value for entry DLESLFKEKLSI [ALA1 C-terminal 12 aa]
Result block: 0.705

----------
Tested on: Saccharomyces cerevisiae
Assay: protein stability index of tFT-peptide fusion (C-terminal peptide) (PSI (0-1 scale)); higher = more stable (slower turnover)
Details: genetic background: wild type; temperature: 30 C
EXPERIMENTAL_ENDPOINT: protein stability index
Give bare numbers.

Look over these answered cases.
- LADSLILWRFPT: 0.722
- KRSPPPATPSSG: 0.24
- EKYELHEVEKEI: 0.597
- PTSLLPLRLLNS: 0.612
- NKRKNVFESTNA: 0.678

Hey, quick one: what's protein stability index for each of these?
1. PLGDLGPRLRKP
2. SIRHPYEFFARS
3. CRGILVGVWRCG
4. GVLGPSFLSVAV
5. LLILGTPKQDSR
6. AGGWLGAEGCGG
7. PILRGRPTPAIL
8. ATLGTVTLAFSV

Result block:
0.669
0.738
0.586
0.584
0.67
0.78
0.708
0.634
